List of solubility thermodynamic at 72 h values.
- testMethodNotes: Thermodynamic solubility of the compound in aqueous PBS buffer at pH 7.4 incubated for 72 hrs by shake flask method based UV-Vis absorption spectroscopy
- Type: physicochemical
- conditionSet: read-out: Therm_solubility
Kindly provide the numeric value in µM only, without the unit symbol.

Known results for molecules:
[[record]]
molecule = "C=C1CN(S(=O)(=O)c2ccc(C)cc2)CCc2cc(C(C)(C)C)cc(n2)CCN(S(=O)(=O)c2ccc(C)cc2)C1.Cl"
experimentalvalue = 20

[[record]]
molecule = "Br.C=C1CN(S(=O)(=O)c2ccc(C)cc2)CCc2cc(O)cc(n2)CCN(S(=O)(=O)c2ccc(C)cc2)C1"
experimentalvalue = 27

[[record]]
molecule = "C=C1CN(S(=O)(=O)c2ccc(C)cc2)CCc2cc(CCC)cc(n2)CCN(S(=O)(=O)c2ccc(C)cc2)C1.Cl"
experimentalvalue = 18

[[record]]
molecule = "C=C1CN(S(=O)(=O)c2ccc(C)cc2)CCc2cc(OC)cc(n2)CCN(S(=O)(=O)c2ccc(C)cc2)C1.Cl"
experimentalvalue = 28

[[record]]
molecule = "C=C1CN(S(=O)(=O)c2ccc(C)cc2)CCCN(Cc2ccccc2)CCCN(S(=O)(=O)c2ccc(C)cc2)C1.Cl [CYCLOTRIAZADISULFONAMIDE HYDROCHLORIDE]"
experimentalvalue = 11


Now look at this entry.
Request: Reported solubility thermodynamic at 72 h, molecule C=C1CN(S(=O)(=O)c2ccc(C)cc2)CCc2cc(CC(C)C)cc(n2)CCN(S(=O)(=O)c2ccc(C)cc2)C1.Cl : ____
Response: 29
